Tested target: hNav1.7 (Homo sapiens (Human), UniProt Q15858)
Sequence (Q15858 other isoform, or with tags, fused parts or gaps): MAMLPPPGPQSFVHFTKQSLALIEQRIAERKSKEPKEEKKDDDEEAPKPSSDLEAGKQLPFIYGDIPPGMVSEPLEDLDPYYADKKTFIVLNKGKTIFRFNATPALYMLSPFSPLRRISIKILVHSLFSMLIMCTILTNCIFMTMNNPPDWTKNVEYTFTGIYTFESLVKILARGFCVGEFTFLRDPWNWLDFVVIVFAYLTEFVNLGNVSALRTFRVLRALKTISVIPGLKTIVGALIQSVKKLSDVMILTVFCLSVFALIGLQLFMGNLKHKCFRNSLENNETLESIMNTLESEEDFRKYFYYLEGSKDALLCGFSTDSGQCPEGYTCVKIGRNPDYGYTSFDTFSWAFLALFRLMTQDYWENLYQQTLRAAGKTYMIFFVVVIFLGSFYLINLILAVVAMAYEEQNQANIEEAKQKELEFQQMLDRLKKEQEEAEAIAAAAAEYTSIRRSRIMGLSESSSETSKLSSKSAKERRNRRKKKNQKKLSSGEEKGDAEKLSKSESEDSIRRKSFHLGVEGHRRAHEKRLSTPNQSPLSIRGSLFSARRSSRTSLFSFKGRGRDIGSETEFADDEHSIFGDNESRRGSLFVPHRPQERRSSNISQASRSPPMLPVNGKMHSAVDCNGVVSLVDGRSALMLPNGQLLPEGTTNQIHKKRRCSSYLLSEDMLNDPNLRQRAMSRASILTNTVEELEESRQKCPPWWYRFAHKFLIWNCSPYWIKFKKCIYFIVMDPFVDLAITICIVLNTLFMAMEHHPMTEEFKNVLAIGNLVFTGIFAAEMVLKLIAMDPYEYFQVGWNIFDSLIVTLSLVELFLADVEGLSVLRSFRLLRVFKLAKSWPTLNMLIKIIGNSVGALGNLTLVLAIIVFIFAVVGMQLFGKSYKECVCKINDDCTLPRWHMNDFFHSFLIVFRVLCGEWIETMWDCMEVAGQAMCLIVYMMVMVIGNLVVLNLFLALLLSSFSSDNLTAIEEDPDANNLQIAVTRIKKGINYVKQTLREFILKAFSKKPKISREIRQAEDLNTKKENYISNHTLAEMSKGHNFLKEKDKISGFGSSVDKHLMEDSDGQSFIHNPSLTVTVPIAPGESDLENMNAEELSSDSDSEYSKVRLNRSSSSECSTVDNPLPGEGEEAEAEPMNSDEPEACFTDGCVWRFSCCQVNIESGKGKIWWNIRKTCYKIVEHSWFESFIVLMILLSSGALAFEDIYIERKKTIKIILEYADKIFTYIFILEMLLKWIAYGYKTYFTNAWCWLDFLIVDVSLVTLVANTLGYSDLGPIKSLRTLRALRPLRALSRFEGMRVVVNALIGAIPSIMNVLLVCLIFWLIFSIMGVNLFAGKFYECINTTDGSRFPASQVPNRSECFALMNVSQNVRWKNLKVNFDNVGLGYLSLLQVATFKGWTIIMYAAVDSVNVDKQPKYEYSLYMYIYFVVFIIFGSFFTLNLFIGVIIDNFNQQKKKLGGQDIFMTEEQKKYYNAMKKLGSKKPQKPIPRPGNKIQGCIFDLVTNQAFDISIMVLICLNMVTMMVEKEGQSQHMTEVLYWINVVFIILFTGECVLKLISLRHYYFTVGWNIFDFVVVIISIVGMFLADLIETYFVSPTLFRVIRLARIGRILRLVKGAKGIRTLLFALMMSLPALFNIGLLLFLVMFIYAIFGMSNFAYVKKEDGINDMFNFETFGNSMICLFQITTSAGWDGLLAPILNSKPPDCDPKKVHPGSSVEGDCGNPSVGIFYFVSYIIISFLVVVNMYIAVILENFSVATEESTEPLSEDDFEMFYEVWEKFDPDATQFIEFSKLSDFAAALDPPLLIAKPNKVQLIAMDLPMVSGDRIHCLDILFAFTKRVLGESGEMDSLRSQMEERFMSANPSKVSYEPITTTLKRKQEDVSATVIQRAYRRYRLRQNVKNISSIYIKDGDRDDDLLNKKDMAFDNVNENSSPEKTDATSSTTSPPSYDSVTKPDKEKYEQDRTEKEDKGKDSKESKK
Sequence (Q07699 19-218 partner): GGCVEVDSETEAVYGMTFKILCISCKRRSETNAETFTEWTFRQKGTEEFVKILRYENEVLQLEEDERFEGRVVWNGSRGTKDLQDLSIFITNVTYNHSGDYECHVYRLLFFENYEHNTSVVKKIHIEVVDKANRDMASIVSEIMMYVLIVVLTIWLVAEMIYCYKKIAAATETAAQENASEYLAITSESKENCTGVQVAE
Assay protocol: Tritiated sulfonamide competitive binding to membranes from cells expressing hNav1.7 and the β1 subunit;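 note: Filter-bound radioactivity counted by liquid scintillation, nonspecific binding defined with excess unlabelled ligand, IC50 fitted to percent inhibition of specific binding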
Condition summary: read-out: Ligand Binding Assay; 100 pM [3H]compound, membranes with hNav1.7 and β1 subunit, 18 h, room temperature
Structures can show the parent of a compound that is named as a salt.
Test readout: IC50 (nM)
Answers are plain numbers, in nM.

# example entries with known answers
CCS(=O)(=O)NC(=O)c1cc(C2CC2)c(OC[C@@H]2CC[C@@H](C)N([C@H](C)c3cc(Cl)cc(Cl)c3)C2)cc1F [Example 345, trifluoroacetic acid salt]	7.8
O=C(NS(=O)(=O)C1CC1)c1cc(C2CC2)c(OCC2CCN(Cc3cc(C(F)(F)F)cc(C4CC4)n3)CC2)cc1F	6
C[Si](C)(C)CCS(=O)(=O)NC(=O)c1cc(C2CC2)c(OCC2CN(C(c3ccccc3)c3ccccc3)C2)cc1F	1600
Cc1ccc(CN2CCC(COc3cc(F)c(C(=O)NS(C)(=O)=O)cc3C3CC3)CC2)cc1	173
CS(=O)(=O)NC(=O)c1cc(C2CC2)c(OCC2CN(S(=O)(=O)c3ccccc3)C2)cc1F	1370
CS(=O)(=O)NC(=O)c1cc(C2CC2)c(OCC2CN(C(c3ccccc3)c3ccccn3)C2)cc1F (stereo in doubt)	306
C[C@H](c1cc(Cl)cc(Cl)c1)N1CCC(C)(COc2cc(F)c(C(=O)NS(C)(=O)=O)cc2C2CC2)CC1 (single isomer, unassigned)	2.7
Cc1ccc(CN2CCC[C@@H](Oc3cc(F)c(C(=O)NS(C)(=O)=O)cc3C3CC3)C2)c(Cl)c1 [Example 424, trifluoroacetic acid salt]	2.5

Answer for every listed entry: what is its IC50? The entries follow.
1. CC1(COc2cc(F)c(C(=O)NS(=O)(=O)C3CC3)cc2C2CC2)CN(c2ncc(Cl)cc2F)C1
2. C[C@@H](c1cc(Cl)cc(Cl)c1)N1CCC(COc2cc(F)c(C(=O)NS(C)(=O)=O)cc2Cl)CC1 [Example 402, trifluoroacetic acid salt]
3. Cc1ccc(CN2CCC[C@@H](Oc3cc(F)c(C(=O)NS(C)(=O)=O)cc3C3CC3)C2)cc1Cl [Example 435, trifluoroacetic acid salt]
4. O=C(NS(=O)(=O)N1CCC1)c1cc(Cl)c(OCC2CCN(Cc3cc(Cl)cc(OC(F)(F)F)c3)CC2)cc1F
5. CS(=O)(=O)NC(=O)c1cc(C2CC2)c(O[C@@H]2CCCN(Cc3cc(F)ccc3C(F)(F)F)C2)cc1F

OUT:
1: 5.2; 2: 22.4; 3: 5.4; 4: 22.7; 5: 2.6

Quick batch: IC50 for everything below.
1. CS(=O)(=O)NC(=O)c1cc(C2CC2)c(OCC2CCN(Cc3ncccc3C(F)(F)F)CC2)cc1F [Example 365, trifluoroacetic acid salt]
2. CS(=O)(=O)NC(=O)c1cc(C2CC2)c(OCC2CCN(C(c3ccc(Cl)cc3)c3ccc(Cl)cc3)CC2)cc1F [Example 362, trifluoroacetic acid salt]

OUT:
1: 327; 2: 2.9

Working through the 2 compounds below one at a time, give IC50 for each.
1. CS(=O)(=O)NC(=O)c1cc(C2CC2)c(OCC2CCN(c3cccc(Cl)c3)CC2)cc1F
2. O=C(NS(=O)(=O)C1CC1)c1cc(Cl)c(OCC2CCN(Cc3cc(Cl)cc(OC(F)(F)F)c3)CC2)cc1F [Example 407, trifluoroacetic acid salt]

OUT:
1. 3.8
2. 6.7

Consider the following items and state reported IC50 for each.
1. O=C(NS(=O)(=O)N1CCC1)c1cc(C2CC2)c(OCC2CCN(Cc3ccc(C4CC4)cc3Cl)CC2)cc1F [Example 417, trifluoroacetic acid salt]
2. CS(=O)(=O)NC(=O)c1cc(C2CC2)c(OCC2CN([C@@H](c3ccccc3)c3ccc(OC(F)(F)F)cc3)C2)cc1F
3. CS(=O)(=O)NC(=O)c1cc(C2CC2)c(O[C@@H]2CCCN([C@H](c3ccc(F)cc3Cl)C(F)(F)F)C2)cc1F (single isomer, unassigned)
4. CS(=O)(=O)NC(=O)c1cc(C2CC2)c(OCC2CCN(C(c3ccc(F)c(Cl)c3)C(F)(F)F)CC2)cc1F (centres unmarked)
5. CS(=O)(=O)NC(=O)c1cc(C2CC2)c(OCC2CN(Cc3cc(F)cc(Cl)c3)C2)cc1F
6. CC(c1cc(F)cc(F)c1)N1CCC(COc2cc(F)c(C(=O)NS(C)(=O)=O)cc2C2CC2)CC1 (centres unmarked)
7. C[C@@H]1CC[C@@H](Oc2cc(F)c(C(=O)NS(=O)(=O)C3CC3)cc2C2CC2)CN1Cc1ccc(F)cc1Cl
8. C[C@@H](c1ccccc1)N1CC(COc2cc(F)c(C(=O)NS(C)(=O)=O)cc2C2CC2)C1

OUT:
1: 5.7; 2: 3.35; 3: 10.8; 4: 3; 5: 74; 6: 22.3; 7: 1.9; 8: 1240

IN: Item `CS(=O)(=O)NC(=O)c1cc(C2CC2)c(O[C@@H]2CCCN(Cc3cc(C(F)(F)F)cc(C4CC4)n3)C2)cc1F` : provide IC50
OUT: 3.9

The origin of these recorded values is patent US9546164B2.
